Origin of measurements: patent US8586577B2

Reported log10 IC50 values follow for various compounds
target: human 11-beta HSD-1 (Homo sapiens); assay: 11beta-HSD1 enzyme assay, human recombinant enzyme from E. coli, HTRF cortisol detection; conditions: cortisone/NADPH 200 nM/200 μM, 150 min at 37° C., read-out: Inhibition of human 11-beta HSD-1 IC50
Sequence (P28845 whole entry): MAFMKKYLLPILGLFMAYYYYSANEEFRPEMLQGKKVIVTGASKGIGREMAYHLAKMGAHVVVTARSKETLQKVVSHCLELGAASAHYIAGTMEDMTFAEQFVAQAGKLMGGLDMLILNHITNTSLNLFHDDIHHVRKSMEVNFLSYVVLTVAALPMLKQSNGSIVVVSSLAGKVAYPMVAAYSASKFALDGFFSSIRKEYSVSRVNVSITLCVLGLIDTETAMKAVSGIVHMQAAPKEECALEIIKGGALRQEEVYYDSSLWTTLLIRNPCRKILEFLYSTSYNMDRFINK
Log10 applied to IC50; unit prior to transform: µM.

Example cases with answers are listed next.
compound	system	log10 IC50
O=C(CN1CCCN(S(=O)(=O)c2ccccc2F)CC1)N1CCCC2CCCCC21 (stereo not drawn)	human 11-beta HSD-1 (Homo sapiens)	-1.57
O=C(CN1CCCN(S(=O)(=O)c2ccccc2F)CC1)N(C1CCCCC1)C1CC1	human 11-beta HSD-1 (Homo sapiens)	-1.12
O=C(CN1CCCN(S(=O)(=O)c2ccccc2F)CC1)N1CCC2(C=Cc3ccccc32)CC1	human 11-beta HSD-1 (Homo sapiens)	-0.91

Q: Name the reported log10 IC50 value associated with the compound O=C(CN1CCCN(S(=O)(=O)c2c(F)cccc2F)CC1)N1CCCC2CCCCC21 (stereo not drawn)
A: -1.77

Q: Name the reported log10 IC50 value associated with the compound `O=C(CN1CCCN(S(=O)(=O)c2ccccc2Cl)CC1)N1CCCCC1`
A: -0.38

Q: Name the reported log10 IC50 value associated with the compound `CN(C(=O)CN1CCCN(S(=O)(=O)c2ccccc2F)CC1)C1CCCCC1`
A: -0.37

* * *

Reported pIC50 values follow for various compounds
biological target: human 11-beta HSD-2 (Homo sapiens, UniProt P80365); experiment: 11beta-HSD2 enzyme assay, human recombinant enzyme (cortisol, NAD, carbenoxolone stop); details: human recombinant enzyme; read-out: Inhibition of human 11-beta HSD-2 IC50
Sequence (P80365 whole entry): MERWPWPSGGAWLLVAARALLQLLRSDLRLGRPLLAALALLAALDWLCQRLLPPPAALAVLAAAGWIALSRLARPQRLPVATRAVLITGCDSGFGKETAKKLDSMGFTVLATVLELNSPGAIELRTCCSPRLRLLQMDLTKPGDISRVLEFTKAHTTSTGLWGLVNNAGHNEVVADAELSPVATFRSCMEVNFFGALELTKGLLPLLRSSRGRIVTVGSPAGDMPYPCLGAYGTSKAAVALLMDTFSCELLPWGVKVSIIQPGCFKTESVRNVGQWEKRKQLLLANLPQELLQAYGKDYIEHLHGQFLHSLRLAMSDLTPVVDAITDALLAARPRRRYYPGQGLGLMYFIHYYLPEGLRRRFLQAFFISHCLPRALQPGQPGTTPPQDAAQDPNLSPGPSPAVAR
The quantity pIC50 is defined as the negative base-10 logarithm of the molar concentration.

compound	system	endpoint_label	reported_value
O=C(CN1CCCN(S(=O)(=O)c2ccccc2F)CC1)N1CCCC2CCCCC21 (centres unmarked) [Ex 2-1]	human 11-beta HSD-2 (Homo sapiens, UniProt P80365)	pIC50	5.52

Next, consider the following compound.
Q: Observed pIC50 on human 11-beta HSD-2 (Homo sapiens, UniProt P80365) for O=C(CN1CCCN(S(=O)(=O)c2ccccc2F)CC1)N(C1CCCCC1)C1CC1 [Ex 3] , please.
A: 5.15
